Record form. Attribute: inhibition. Fill in for each entry.
target: P2Y purinoceptor 1 (Meleagris gallopavo); experiment: Antagonist activity for inhibition of PLC elicited by 10 nM 2-MeSADP at P2Y purinoceptor 1 in turkey erythrocyte membranes; assay type: functional, cell membranes
Respond with a number, then the unit of measure.

Known inhibition results, listed for orientation:
In [3]: df
Out[3]:
                                 cpd_smiles                              study_system  endpoint_value
0  Nc1nc2c(ncn2[C@H]2C[C@H](OP(=O)(O)O)[C@@H](COP(=O)(O)O)O2)c(=O)[nH]1  P2Y purinoceptor 1 (Meleagris gallopavo)             93%
1  CCSc1nc(NC)c2ncn([C@H]3C[C@H](OP(=O)(O)O)[C@@H](COP(=O)(O)O)O3)c2n1  P2Y purinoceptor 1 (Meleagris gallopavo)             94%
2  CCCSc1nc(NC)c2ncn([C@H]3C[C@H](OP(=O)(O)O)[C@@H](COP(=O)(O)O)O3)c2n1  P2Y purinoceptor 1 (Meleagris gallopavo)             94%

Dear reader, for each entry below, please note its inhibition.
1. Nc1ncnc2c1ncn2[C@H]1C[C@H](OP(=O)(O)O)[C@@H](COP(=O)(O)O)O1
2. CNc1nc(Cl)nc2c1ncn2[C@H]1C[C@H](OP(=O)(O)O)[C@@H](COP(=O)(O)O)O1
3. Nc1ncnc2c1ncn2[C@@H]1C[C@H](COP(=O)(O)O)[C@@H](OP(=O)(O)O)C1
4. CNc1nc(N)nc2c1ncn2[C@@H]1C[C@H](COP(=O)(O)O)[C@@H](OP(=O)(O)O)C1
5. Nc1nc(Cl)nc2c1ncn2[C@H]1C[C@H](OP(=O)(O)O)[C@@H](COP(=O)(O)O)O1
6. CNc1nc(I)nc2c1ncn2[C@H]1C[C@H](OP(=O)(O)O)[C@@H](COP(=O)(O)O)O1
7. CNc1ncnc2c1ncn2[C@H]1C[C@@H]2OP(=O)(O)OP(=O)(O)OP(=O)(O)OP(=O)(O)OC[C@H]2O1

1. 87%
2. 95%
3. 73%
4. 74%
5. 80%
6. 87%
7. 87%
